- TESTED ON: human Thromboxane A2 Receptor (TXA2), TBXA2R (gene 6915) (UniProt P21731)
- Sequence (P21731 whole entry, looked up): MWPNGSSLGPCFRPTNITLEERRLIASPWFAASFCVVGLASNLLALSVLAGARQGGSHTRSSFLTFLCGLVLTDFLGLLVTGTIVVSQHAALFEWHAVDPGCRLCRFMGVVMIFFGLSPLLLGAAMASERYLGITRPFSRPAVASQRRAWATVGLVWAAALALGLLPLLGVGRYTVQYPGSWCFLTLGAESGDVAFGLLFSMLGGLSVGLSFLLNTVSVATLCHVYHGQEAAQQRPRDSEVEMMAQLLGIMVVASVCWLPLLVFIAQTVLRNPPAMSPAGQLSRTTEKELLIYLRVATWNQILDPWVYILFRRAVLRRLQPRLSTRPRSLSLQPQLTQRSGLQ
- ASSAY OVERVIEW: NVS_GPCR_hTXA2: NovaScreen (NVS) G Protein-Coupled Receptor Assay for human Thromboxane A2 Receptor (TXA2) (AID 2283282);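 further: actives reduce bound radioligand signal relative to DMSO baseline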
Results filed as inconclusive are left out. Activity calls are given as the source filed them. How the source made its calls: active means hit-call score of the fitted dose curve at least 0.9, where 1 is the maximum; inconclusive means response in the unintended direction; inactive means score below 0.9.
Allowed answers: TRUE for active, FALSE for inactive

CN(c1nccc(=O)[nH]1)C1CCN(c2nc3ccccc3n2Cc2ccc(F)cc2)CC1: TRUE
CN(C)C(=O)Nc1ccc(Oc2ccc(Cl)cc2)cc1: FALSE
Oc1c(Cl)cc(Cl)c(Cl)c1Cc1c(O)c(Cl)cc(Cl)c1Cl: FALSE
COc1ccc(CCN2CCC(Nc3nc4ccccc4n3Cc3ccc(F)cc3)CC2)cc1: TRUE
CC(C)CC(C)CC(O)CC(C)C (stereo unspecified): FALSE

Query :: Can you look up the reported call for CC(=O)Nc1ccc(C(=O)CCl)cc1 for me?
Result :: TRUE
